TARGET UNDER TEST: Proto-oncogene tyrosine-protein kinase Src [251-533,T338C] (Gallus gallus, UniProt P00523, T338C)
Construct: 251-533
EXPERIMENT NOTES: In vitro Kinase Assay
CONDITION DETAILS: pH 8
MEASURED PROPERTY: IC50 (nM)

{"QUERY SMILES": "CC(=O)c1cccc(Cc2nn(C(C)C)c3ncnc(N)c23)c1", "RESULT VALUE": 4520}
{"QUERY SMILES": "C=CS(=O)(=O)Nc1ccc(Nc2ncnc3cc(OC)c(OC)cc23)cc1", "RESULT VALUE": 560}
